# Tested on: Zluc cells
# assay-overview: cytotoxicity evaluation (CellTiter-Blue Cell Viability Assay)
# condition: read-out: HCV Replicon CC50; Zluc cells, CellTiter-Blue
quantity-measured: CC50

Answered examples (6):
CCOc1nc(N)nc2c1ncn2[C@@H]1O[C@@H]2COP(=O)(OCCSSC(C)(C)C)O[C@H]2[C@@]1(C)F (single isomer, unassigned) [Compound 24 Diastereomer 2]: < 50 µM
CCOC(=O)CCCOP1(=O)OC[C@H]2O[C@@H](n3cnc4c(OC)nc(N)nc43)[C@](C)(O)[C@@H]2O1 (stereo partly drawn): < 50 µM
CC(=O)OCC(C)(C)C(=O)SCCOP1(=O)OC[C@H]2O[C@@H](n3cnc4c(=O)[nH]c(N)nc43)[C@](C)(F)[C@@H]2O1 (single isomer, unassigned; diastereomer 1) [Compound 18 Diastereomer 1]: > 50 µM
CC(=O)OCC(C)(C)C(=O)SCCOP1(=O)OC[C@H]2O[C@@H](n3cnc4c(=O)[nH]c(N)nc43)[C@](C)(F)[C@@H]2O1 (single isomer, unassigned; diastereomer 2) [Compound 18 Diastereomer 2]: < 50 µM
CC(C)OC(=O)CCCOP1(=O)OC[C@H]2O[C@@H](n3cnc4c(=O)[nH]c(N)nc43)[C@](C)(F)[C@@H]2O1 (single isomer, unassigned; diastereomer 1) [Compound 6 Diastereomer 1]: > 50 µM
CCOc1nc(N)nc2c1ncn2[C@@H]1O[C@@H]2COP(=O)(OCCCC(=O)OC(C)C)O[C@H]2[C@@]1(C)F (single isomer, unassigned; diastereomer 1) [Compound 3 Diastereomer 1]: < 50 µM

Provide the reported CC50 of each entry below, same order.
1. CCOc1nc(N)nc2c1ncn2[C@@H]1O[C@@H]2COP(=O)(OCCSC(=O)C(C)(C)CO)O[C@H]2[C@@]1(C)F (single isomer, unassigned) [Compound 5 Diastereomer 2]
2. CC(C)(CO)C(=O)SCCOP1(=O)OC[C@H]2O[C@@H](n3cnc4c(=O)[nH]c(N)nc43)[C@](C)(F)[C@@H]2O1 (single isomer, unassigned; diastereomer 2) [Compound 17 Diastereomer 2]
3. CCOC(=O)COP1(=O)OC[C@H]2O[C@@H](n3cnc4c(OCC)nc(N)nc43)[C@](C)(F)[C@@H]2O1 (single isomer, unassigned; diastereomer 1) [Compound 7 Diastereomer 1]

OUTPUT:
1: > 50 µM; 2: < 50 µM; 3: > 50 µM

---

For each record, write down the corresponding MsH Cmax.
# Tested on: mouse hepatocytes
# assay-overview: Release of active metabolite in mouse hepatocytes
# Type: in vitro ADME
# condition: 10 μM compound, mouse hepatocytes
Give bare numbers, in pmol/mill cells.

Provide the reported MsH Cmax of each entry below, same order.
1. CCOc1nc(N)nc2c1ncn2[C@@H]1O[C@@H]2COP(=O)(OCCSC(=O)C(C)(C)CO)O[C@H]2[C@@]1(C)F (single isomer, unassigned) [Compound 5 Diastereomer 1]
2. CCOc1nc(N)nc2c1ncn2[C@@H]1O[C@@H]2COP(=O)(OCCCC(=O)OC(C)C)O[C@H]2[C@@]1(C)F (single isomer, unassigned; diastereomer 2) [Compound 3 Diastereomer 2]
3. CCOc1nc(N)nc2c1ncn2[C@@H]1O[C@@H]2COP(=O)(OCCSC(=O)C(C)(C)CO)O[C@H]2[C@@]1(C)F (single isomer, unassigned) [Compound 5 Diastereomer 2]
4. CCOc1nc(N)nc2c1ncn2[C@@H]1O[C@@H]2COP(=O)(OCCSC(=O)C(C)(C)CO)O[C@H]2[C@@]1(C)O (single isomer, unassigned) [Compound 4 Diastereomer 2]
5. CCOc1nc(N)nc2c1ncn2[C@@H]1O[C@@H]2COP(=O)(OCCSC(=O)C(C)(C)CO)O[C@H]2[C@@]1(C)O (single isomer, unassigned) [Compound 4 Diastereomer 1]
6. CCOc1nc(N)nc2c1ncn2[C@@H]1O[C@@H]2COP(=O)(OCCCC(=O)OC(C)C)O[C@H]2[C@@]1(C)O (single isomer, unassigned) [Compound 1 Diastereomer 2]

OUTPUT:
374
91
302
386
468
330

---

# Tested on: Zluc cells
# assay-overview: cytotoxicity evaluation (CellTiter-Blue Cell Viability Assay)
# condition: read-out: HCV Replicon CC50; Zluc cells, CellTiter-Blue
quantity-measured: CC50

Answered examples (4):
CCOC(=O)CCOP1(=O)OC[C@H]2O[C@@H](n3cnc4c(OCC)nc(N)nc43)[C@](C)(F)[C@@H]2O1 (single isomer, unassigned; diastereomer 2) [Compound 8 Diastereomer 2]: > 50 µM
CCOc1nc(N)nc2c1ncn2[C@@H]1O[C@@H]2COP(=O)(OCCC(=O)OC(C)C)O[C@H]2[C@@]1(C)O (single isomer, unassigned; diastereomer 2) [Compound 22 Diastereomer 2]: > 50 µM
CC(C)(CO)C(=O)SCCOP1(=O)OC[C@H]2O[C@@H](n3cnc4c(=O)[nH]c(N)nc43)[C@](C)(F)[C@@H]2O1 (single isomer, unassigned; diastereomer 1) [Compound 17 Diastereomer 1]: > 50 µM
CCOc1nc(N)nc2c1ncn2[C@@H]1O[C@@H]2COP(=O)(OC[C@H](C)NC(=O)OCC(C)C)O[C@H]2[C@@]1(C)F (single isomer, unassigned; diastereomer 1) [Compound 12 Diastereomer 1]: > 50 µM

Provide the reported CC50 of each entry below, same order.
1. CCOc1nc(N)nc2c1ncn2C1OC2COP(=O)(OCC(NC(=O)OC)C(=O)OC(C)C)OC2C1(C)O (single isomer, unassigned; diastereomer 1) [Compound 14 Diastereomer 1]
2. CCOc1nc(N)nc2c1ncn2[C@@H]1O[C@@H]2COP(=O)(OCCSC(=O)C(C)(C)COC(C)=O)O[C@H]2[C@@]1(C)OC(C)=O (single isomer, unassigned; diastereomer 1) [Compound 19 Diastereomer 1]
3. CCOc1nc(N)nc2c1ncn2[C@@H]1O[C@@H]2COP(=O)(OCCC(=O)OC(C)C)O[C@H]2[C@@]1(C)O (single isomer, unassigned; diastereomer 1) [Compound 22 Diastereomer 1]
4. CCOC(=O)CCOP1(=O)OC[C@H]2O[C@@H](n3cnc4c(OCC)nc(N)nc43)[C@](C)(F)[C@@H]2O1 (single isomer, unassigned; diastereomer 1) [Compound 8 Diastereomer 1]
5. CCOc1nc(N)nc2c1ncn2[C@@H]1O[C@@H]2COP(=O)(OCCSC(=O)C(C)(C)CO)O[C@H]2[C@@]1(C)O (single isomer, unassigned) [Compound 4 Diastereomer 2]

OUTPUT:
< 50 µM
< 50 µM
> 50 µM
> 50 µM
< 50 µM

Provide the reported CC50 of each entry below, same order.
1. CCOc1nc(N)nc2c1ncn2C1OC2COP(=O)(Oc3ccc(CC(NC(=O)OC)C(=O)OC(C)C)cc3)OC2C1(C)F (single isomer, unassigned; diastereomer 1) [Compound 13 Diastereomer 1]
2. CCOc1nc(N)nc2c1ncn2C1OC2COP(=O)(Oc3ccc(CC(NC(=O)OC)C(=O)OC(C)C)cc3)OC2C1(C)F (single isomer, unassigned; diastereomer 2) [Compound 13 Diastereomer 2]
3. CC(C)OC(=O)CCCOP1(=O)OC[C@H]2O[C@@H](n3cnc4c(=O)[nH]c(N)nc43)[C@](C)(F)[C@@H]2O1 (single isomer, unassigned; diastereomer 2) [Compound 6 Diastereomer 2]
4. CCOc1nc(N)nc2c1ncn2[C@@H]1O[C@@H]2COP(=O)(OCCSC(=O)C(C)(C)CO)O[C@H]2[C@@]1(C)OC(C)=O (single isomer, unassigned; diastereomer 1) [Compound 16 Diastereomer 1]
5. CCOc1nc(N)nc2c1ncn2[C@@H]1O[C@@H]2COP(=O)(OCCCC(=O)OC(C)C)O[C@H]2[C@@]1(C)O (single isomer, unassigned) [Compound 1 Diastereomer 2]

OUTPUT:
1: > 50 µM; 2: > 50 µM; 3: > 50 µM; 4: < 50 µM; 5: < 50 µM

Provide the reported CC50 of each entry below, same order.
1. CCOc1nc(N)nc2c1ncn2[C@@H]1O[C@@H]2COP(=O)(OCCSC(=O)C(C)(C)COC(C)=O)O[C@H]2[C@@]1(C)OC(C)=O (single isomer, unassigned; diastereomer 2) [Compound 19 Diastereomer 2]
2. CCOc1nc(N)nc2c1ncn2[C@@H]1O[C@@H]2COP(=O)(OC[C@H](C)NC(=O)OC)O[C@H]2[C@@]1(C)F (single isomer, unassigned; diastereomer 2) [Compound 9 Diastereomer 2]

OUTPUT:
< 50 µM
> 50 µM

---

# assay-overview: Plasma pharmacokinetics following a single oral dose in CD-1 mice
# Type: in vivo
# condition: single oral dose 25 mg/kg in PEG 200, CD-1 male mice; given at 1 μmol/kg; 25 mg/kg
quantity-measured: Ms Plasma 2′-MeG AUC (pmol · hr/mL at 1 μmol/kg)
Numbers only, in pmol · hr/mL at 1 μmol/kg.

CCOc1nc(N)nc2c1ncn2[C@@H]1O[C@@H]2COP(=O)(OCCSC(=O)C(C)(C)CO)O[C@H]2[C@@]1(C)O (single isomer, unassigned) [Compound 4 Diastereomer 2]: 24

Provide the reported Ms Plasma 2′-MeG AUC of each entry below, same order.
1. CC(C)OC(=O)CCCOP1(=O)OC[C@H]2O[C@@H](n3cnc4c(=O)[nH]c(N)nc43)[C@](C)(F)[C@@H]2O1 (single isomer, unassigned; diastereomer 1) [Compound 6 Diastereomer 1]
2. CCOc1nc(N)nc2c1ncn2[C@@H]1O[C@@H]2COP(=O)(OCCSC(=O)C(C)(C)CO)O[C@H]2[C@@]1(C)F (single isomer, unassigned) [Compound 5 Diastereomer 2]
3. CCOc1nc(N)nc2c1ncn2[C@@H]1O[C@@H]2COP(=O)(OCCCC(=O)OC(C)C)O[C@H]2[C@@]1(C)O (single isomer, unassigned) [Compound 1 Diastereomer 2]
4. CCOc1nc(N)nc2c1ncn2[C@@H]1O[C@@H]2COP(=O)(OCCSC(=O)C(C)(C)CO)O[C@H]2[C@@]1(C)F (single isomer, unassigned) [Compound 5 Diastereomer 1]

OUTPUT:
1. 13
2. 220
3. 68
4. 97
